The label depends only on melting point: label 1 if it is at least 100 °C, label 0 if it is smaller.

| Molecule | Class name |
| --- | --- |
| NS(=O)(=O)c1ccccc1 | label 1 |

stdin: // inclusive: melting point at least 100 °C? input: `CCc1oc2ccccc2c1C(=O)c1ccc(O)cc1`
stdout: label 1

----------
Given measured melting point, output Criterion met if it is greater than or equal to 50 °C and Criterion not met if not.

Below are worked cases with known answers.
| Molecule | Class name |
| --- | --- |
| CCCCCCCCCCCCCCCCC1CCCCC1 | Criterion not met |
| CCCCC(C)C(C)C (centres undefined) | Criterion not met |
| CC/C=C\CCCC | Criterion not met |
| C[C@]12CC[C@H](O)C[C@H]1CC[C@@H]1[C@@H]2[C@H](O)C[C@]2(C)[C@@H](C3=CC(=O)OC3)CC[C@]12O | Criterion met |
| COc1cc(C=O)cc(OC)c1 | Criterion not met |

stdin: Could you tell me if the measured melting point of `O=S(=O)(Cl)c1ccc2ccccc2c1` reaches 50 °C or more?
stdout: Criterion met

----------
Examples of compounds with documented boiling point follow.
Form entry: value (°C) — number only.

Example entries and their recorded answers appear below.
| Compound | Uom | boiling point |
| --- | --- | --- |
| CCCOC(=O)c1ccccc1O | °C | 239 |
| C=CCCCCC | °C | 93.6 |
| C=C(C)CCCC | °C | 92 |
| CC/C=C\CC1=C(C)CCC1=O | °C | 258 |
| Cc1ccc(Cl)c(Cl)c1Cl | °C | 244 |

stdin: Fill in the blank: the reported boiling point of `Cc1ccccc1N=C=O` is ____.
stdout: 185

stdin: Queued: `O=C(Cl)c1ccc(Br)cc1`
stdout: 246

stdin: For `COc1ccc(OC)c(N)c1` then?
stdout: 270

stdin: Repeat with `Cc1cccc2cccnc12`
stdout: 248

stdin: Try the compound `NN1CCOCC1`
stdout: 166

stdin: Let us now turn to CCCCC(CC)COC(=O)c1ccccc1C(=O)OCC(CC)CCCC (configuration not stated)
stdout: 384

stdin: Would you kindly repeat that for O=C(O)C(F)Cl (configuration not stated) ?
stdout: 162

stdin: What about this compound? `Cc1cc(C)c(C=O)c(C)c1`
stdout: 238

----------
Decision: boiling point >= 200 °C yields class 1, all other cases yield class 0.

| Molecule | Class name |
| --- | --- |
| OCCCCCO | class 1 |
| c1ccc2c(c1)ccc1c3ccccc3ccc21 | class 1 |
| FC(F)=C(Cl)Cl | class 0 |

stdin: Item `Cc1cc2ccccc2[nH]1` with boiling point of 200 °C or above?
stdout: class 1

stdin: Do the same for `OCc1cccnc1` please
stdout: class 1

stdin: What do we get for `CN(C)C(=O)Cl` ?
stdout: class 0

stdin: Next up: `Cc1c(C)n(C)c2ccccc12`
stdout: class 1

stdin: Would you kindly repeat that for `Cc1ccc2c(c1)CCCC2` ?
stdout: class 1

stdin: Then `C=CCOCC` ?
stdout: class 0

stdin: Also check `CCCCCCCCCCCC(C)=O`
stdout: class 1

----------
Property label: log10 vapour pressure (mmHg)
Enter a number only.

stdin: What log10 vapour pressure (mmHg) value was documented for this molecule, `CC1=C(C)S(=O)(=O)CCS1(=O)=O` ?
stdout: -6.42

stdin: Okay, and `C=CCN(CC=C)C(=O)C(Cl)Cl` ?
stdout: -2.22

stdin: Same again, this time with `Clc1ccc(-c2ccc(Cl)c(Cl)c2Cl)cc1Cl`
stdout: -5.18

stdin: Also, `CCCC(CC)CC` please.
stdout: 1.3

stdin: Also, `CCCCCC1CCCCC1` please.
stdout: -0.429

stdin: Next molecule up: ClC1=C(Cl)C2(Cl)C3C(Cl)OC(Cl)C3C1(Cl)C2(Cl)Cl (stereo not given)
stdout: -5.53

stdin: Okay, and `CCCCCCCCCCCCCCCCCCl` ?
stdout: -4.34

stdin: Same thing, different molecule: `C=C(C)CCO`
stdout: 0.551
